Every entry's value here was drawn from patent US20260209234A1.

Biological target: hM4 receptors (Homo sapiens, UniProt P08173)
Sequence (P08173 1-479): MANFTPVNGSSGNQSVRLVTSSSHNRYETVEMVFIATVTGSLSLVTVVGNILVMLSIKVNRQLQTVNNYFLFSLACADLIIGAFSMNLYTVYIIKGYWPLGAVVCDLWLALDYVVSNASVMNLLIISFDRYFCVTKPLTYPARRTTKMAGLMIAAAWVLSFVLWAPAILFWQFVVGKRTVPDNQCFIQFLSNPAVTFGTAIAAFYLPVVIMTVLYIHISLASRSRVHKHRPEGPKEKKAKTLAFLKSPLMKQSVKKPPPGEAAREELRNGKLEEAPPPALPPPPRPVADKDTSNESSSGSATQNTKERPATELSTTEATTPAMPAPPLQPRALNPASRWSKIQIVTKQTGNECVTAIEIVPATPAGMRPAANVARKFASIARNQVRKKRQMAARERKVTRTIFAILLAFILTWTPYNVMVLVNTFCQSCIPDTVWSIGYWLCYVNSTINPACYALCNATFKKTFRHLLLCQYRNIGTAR
Experiment: Human M4 PAM pERK assay
Settings: CHO cells expressing hM4; EC20 of acetylcholine (10 nM final); TR-FRET
Recorded EC50 by entry
property.name: EC50

molecule | measured.result
COc1nc(C#N)nc2c1C(C)N(C(=O)CC1CN(c3cccnc3)C1)C2 (single isomer, unassigned) [Compound I-7] | ≥ 2000 nM
COc1nc(C#N)nc2c1CN(C(=O)CC1CN(c3ccnc(C(F)(F)F)c3)C1)C2C (single isomer, unassigned) [Compound I-34] | 500 to 2000 nM
COc1nc2c(c(C3CCC3)n1)CN(C(=O)CC1CN(c3ccnc(C(F)(F)F)c3)C1)C2 [Compound I-74] | ≥ 2000 nM

---

target: human M4 receptor (Homo sapiens); assay: M4 GTPγS PAM assay; conditions: membranes of CHO-K1 cells stably expressing human M4; EC20 acetylcholine 40 nM; 35S-GTP
Quick reference: EC50 of the listed items.

molecule | EC50
COc1nc(C#N)nc2c1C(C)N(C(=O)CC1CN(c3ccnc(C(F)(F)F)c3)C1C)C2 (single isomer, unassigned) [Compound I-36] | ≤ 100 nM
COc1nc(C#N)nc2c1CN(C(=O)CC1CN(c3ccnc(C(F)(F)F)c3)C1)C2C (single isomer, unassigned) [Compound I-34] | 500 to 2000 nM
COc1nc(C#N)nc2c1C(C)N(C(=O)CC1CN(c3cccc(F)c3F)C1)C2 (single isomer, unassigned) [Compound I-19] | 100 to 500 nM
COc1nc(C#N)nc2c1C(C)N(C(=O)CC1CN(c3ccnc(OC4CC4)c3)C1)C2 (single isomer, unassigned) [Compound I-14] | ≤ 100 nM
COc1cc(N2CC(CC(=O)N3Cc4nc(C#N)nc(OC)c4C3C)C2)cc(C(F)(F)F)n1 (stereo not drawn) | ≥ 2000 nM
COc1nc(C#N)nc2c1C(C)N(C(=O)CC1CN(c3ccnc(C(F)(F)F)c3)C1C)C2 (single isomer, unassigned) [Compound I-37] | ≤ 100 nM

---

molecular target: human M4 receptor (Homo sapiens, UniProt P08173); assay: M4 GTPγS PAM assay; details: membranes of CHO-K1 cells stably expressing human M4; EC20 acetylcholine 40 nM; 35S-GTP

compound | EC50
COc1nc(C)nc2c1CN(C(=O)CC1CN(c3ncns3)C1)C2 [Compound I-45] | ≥ 2 µM
COc1nc(C#N)nc2c1C(C)N(C(=O)CC1CN(c3cnnc(C(F)(F)F)c3)C1)C2 (single isomer, unassigned) [Compound I-24] | ≥ 2 µM
COc1nc(C)nc2c1CN(C(=O)CC1CN(c3ccc(C(F)(F)F)nc3)C1)C2 [Compound I-44] | ≥ 2 µM
COc1nc2c(c(C3CCC3)n1)CN(C(=O)CC1CN(c3ccnc(C(F)(F)F)c3)C1)C2 [Compound I-74] | ≥ 2 µM
COc1nc(OC)c2c(n1)C(C)N(C(=O)CC1CN(c3ccnc(C(F)(F)F)c3)C1)C2 (single isomer, unassigned) [Compound I-71] | 0.5 to 2 µM
COc1nc(C#N)nc2c1C(C)N(C(=O)CC1CN(c3cccc(C(F)(F)F)c3)C1)C2 (single isomer, unassigned) [Compound I-15] | ≥ 2 µM
COc1nc(C#N)nc2c1C(C)N(C(=O)CC1CN(c3cccnc3)C1)C2 (single isomer, unassigned) [Compound I-8] | 0.5 to 2 µM
COc1nc(C#N)nc2c1C(C)N(C(=O)CC1CN(c3ccnc(C(F)(F)F)c3)C1)C2 (single isomer, unassigned) [Compound I-5] | ≥ 2 µM
COc1nc(C)nc2c1CN(C(=O)CC1CN(c3ccnc(C(F)(F)F)c3)C1)C2 [Compound I-43] | 0.1 to 0.5 µM
COc1nc(C)nc2c1C(C)N(C(=O)CC1CN(c3cccc(C#N)c3)C1)C2 (single isomer, unassigned) [Compound I-54] | ≥ 2 µM

---

Molecular target: human M4 receptor (Homo sapiens, UniProt P08173)
Sequence (P08173 1-479): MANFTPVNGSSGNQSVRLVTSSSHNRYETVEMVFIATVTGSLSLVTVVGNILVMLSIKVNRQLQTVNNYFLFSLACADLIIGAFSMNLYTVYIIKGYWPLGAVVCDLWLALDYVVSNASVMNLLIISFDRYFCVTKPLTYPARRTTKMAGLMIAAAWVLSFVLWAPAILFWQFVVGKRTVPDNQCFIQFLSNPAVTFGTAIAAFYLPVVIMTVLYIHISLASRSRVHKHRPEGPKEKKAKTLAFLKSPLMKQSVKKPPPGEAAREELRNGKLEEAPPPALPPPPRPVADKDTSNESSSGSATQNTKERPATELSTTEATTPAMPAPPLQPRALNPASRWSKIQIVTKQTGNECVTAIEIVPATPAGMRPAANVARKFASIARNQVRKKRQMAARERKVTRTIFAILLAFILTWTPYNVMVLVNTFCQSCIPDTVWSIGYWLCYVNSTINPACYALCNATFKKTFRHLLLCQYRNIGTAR
Assay: M4 GTPγS PAM assay
Conditions: membranes of CHO-K1 cells stably expressing human M4; EC20 acetylcholine 40 nM; 35S-GTP
pEC50: −log10 of the molar value.
Catalogue of pEC50 values
property.name: pEC50

compound | subject.of.test | property.name | measured.result
CCOc1nc(C)nc2c1CN(C(=O)CC1CN(c3ccnc(C(F)(F)F)c3)C1)C2 | human M4 receptor (Homo sapiens, UniProt P08173) | pEC50 | 5.70 to 6.30
COc1nc(C2CC2)nc2c1CN(C(=O)CC1CN(c3ccnc(C(F)(F)F)c3)C1)C2 | human M4 receptor (Homo sapiens, UniProt P08173) | pEC50 | 6.30 to 7.00
COc1nc(C#N)nc2c1C(C)N(C(=O)CC1CN(c3ccnc(C(F)(F)F)c3)C1)C2 (single isomer, unassigned) [Compound I-6] | human M4 receptor (Homo sapiens, UniProt P08173) | pEC50 | ≥ 7.00
COc1nc2c(c(OC)n1)C(C)N(C(=O)CC1CN(c3ccc(C#N)cc3)C1)C2 (single isomer, unassigned) [Compound I-66] | human M4 receptor (Homo sapiens, UniProt P08173) | pEC50 | 5.70 to 6.30
COc1nc(C#N)nc2c1C(C)N(C(=O)CC1CN(c3ccnc(C(C)(C)O)c3)C1)C2 (single isomer, unassigned) | human M4 receptor (Homo sapiens, UniProt P08173) | pEC50 | 6.30 to 7.00
COc1nc(C)nc2c1C(C)N(C(=O)CC1CN(c3ccnc(C(F)(F)F)c3)C1)C2 (single isomer, unassigned) [Compound I-53] | human M4 receptor (Homo sapiens, UniProt P08173) | pEC50 | ≤ 5.70
COc1nc(C)nc2c1CN(C(=O)CC1CN(c3ccnc(C(F)(F)F)c3)C1)C2C (single isomer, unassigned) [Compound I-63] | human M4 receptor (Homo sapiens, UniProt P08173) | pEC50 | 5.70 to 6.30

---

biological target: rM4 receptors (Rattus norvegicus); test: Rat M4 PAM pERK assay; conditions: CHO cells expressing rM4; EC20 of acetylcholine (10 nM final); TR-FRET
Sequence (P08485 whole entry): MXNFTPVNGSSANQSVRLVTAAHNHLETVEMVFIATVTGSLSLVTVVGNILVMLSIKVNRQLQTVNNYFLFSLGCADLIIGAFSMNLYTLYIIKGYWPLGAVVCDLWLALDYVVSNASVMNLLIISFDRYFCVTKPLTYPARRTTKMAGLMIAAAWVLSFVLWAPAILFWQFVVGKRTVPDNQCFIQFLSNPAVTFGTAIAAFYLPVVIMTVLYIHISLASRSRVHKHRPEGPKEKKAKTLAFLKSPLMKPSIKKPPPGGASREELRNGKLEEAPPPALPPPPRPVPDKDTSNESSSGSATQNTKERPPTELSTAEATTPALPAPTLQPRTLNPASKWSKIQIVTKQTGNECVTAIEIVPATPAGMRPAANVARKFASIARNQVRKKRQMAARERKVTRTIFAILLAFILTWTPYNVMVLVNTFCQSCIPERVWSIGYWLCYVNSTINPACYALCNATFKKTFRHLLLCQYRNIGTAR
pEC50: −log10 of the molar value.

molecule | pEC50
COc1nc(C#N)nc2c1CN(C(=O)CC1CN(c3ccnc(C(F)(F)F)c3)C1)C2C (single isomer, unassigned) [Compound I-34] | ≤ 5.70
COc1cc(N2CC(CC(=O)N3Cc4nc(C#N)nc(OC)c4C3C)C2)cc(C(F)(F)F)n1 (stereo not drawn) | ≤ 5.70
COc1nc(C#N)nc2c1C(C)N(C(=O)CC1CN(c3cnnc(C(F)(F)F)c3)C1)C2 (single isomer, unassigned) [Compound I-25] | 5.70 to 6.30
COc1nc2c(c(C3CCC3)n1)CN(C(=O)CC1CN(c3ccnc(C(F)(F)F)c3)C1)C2 | ≤ 5.70
COc1nc2c(c(OC)n1)C(C)N(C(=O)CC1CN(c3ccnc(C(F)(F)F)c3)C1)C2 (single isomer, unassigned) [Compound I-68] | 6.30 to 7.00
COc1nc(C)nc2c1CN(C(=O)CC1CN(c3ccnc(C(F)(F)F)c3)C1)C2C (single isomer, unassigned) [Compound I-62] | 5.70 to 6.30
COc1nc(C#N)nc2c1C(C)N(C(=O)CC1CN(c3cccc(C(F)(F)F)c3)C1)C2 (single isomer, unassigned) [Compound I-16] | 6.30 to 7.00
COc1nc(C#N)nc2c1C(C)N(C(=O)CC1CN(c3cncnc3)C1)C2 (single isomer, unassigned) [Compound I-27] | 5.70 to 6.30
COc1cc(N2CC(CC(=O)N3Cc4nc(C#N)nc(OC)c4C3C)C2)ccn1 (single isomer, unassigned) [Compound I-18] | 5.70 to 6.30
COc1nc(C)nc2c1CN(C(=O)CC1CN(c3ccnc(C(F)(F)F)c3)C1)C2 | 5.70 to 6.30
COc1nc2c(c(OC)n1)CN(C(=O)CC1CN(c3ccnc(C(F)(F)F)c3)C1)C2 | ≤ 5.70
COc1nc(C)nc2c1CN(C(=O)CC1CN(c3cccnc3)C1)C2 | 5.70 to 6.30
COc1nc(C2CC2)nc2c1CN(C(=O)CC1CN(c3ccnc(C(F)(F)F)c3)C1)C2 | 5.70 to 6.30
COc1nc2c(c(OC(F)F)n1)CN(C(=O)CC1CN(c3cccnc3)C1)C2 | ≤ 5.70
COc1nc(C#N)nc2c1C(C)N(C(=O)CC1CN(c3cc(F)cc(F)c3)C1)C2 (single isomer, unassigned) [Compound I-9] | ≥ 7.00
COc1nc(C#N)nc2c1C(C)N(C(=O)CC1CN(c3cnnc(C(F)(F)F)c3)C1)C2 (single isomer, unassigned) [Compound I-24] | ≤ 5.70
Cc1nc2c(c(OC(C)C)n1)CN(C(=O)CC1CN(c3ccnc(C(F)(F)F)c3)C1)C2 | ≤ 5.70
COc1nc(C)nc2c1C(C)N(C(=O)CC1CN(c3ccnc(C(F)(F)F)c3)C1)C2 (racemic) [Compound I-51] | 5.70 to 6.30
COc1nc(OC)c2c(n1)C(C)N(C(=O)CC1CN(c3ccnc(C(F)(F)F)c3)C1)C2 (single isomer, unassigned) [Compound I-70] | ≤ 5.70
COc1nc(C#N)nc2c1C(C)N(C(=O)CC1CN(c3cccnc3)C1)C2 (single isomer, unassigned) [Compound I-8] | 6.30 to 7.00
COc1nc(C#N)nc2c1C(C)N(C(=O)CC1CN(c3ncns3)C1)C2 (single isomer, unassigned) [Compound I-3] | 5.70 to 6.30
COc1nc(C#N)nc2c1C(C)N(C(=O)CC1CN(c3cccnc3)C1)C2 (single isomer, unassigned) [Compound I-7] | ≤ 5.70
COc1nc(OC)c2c(n1)C(C)N(C(=O)CC1CN(c3ccnc(C(F)(F)F)c3)C1)C2 (single isomer, unassigned) [Compound I-71] | ≤ 5.70
COc1nc(C)nc2c1CN(C(=O)CC1CN(c3ccnc(C(F)(F)F)c3)C1)C2C (single isomer, unassigned) [Compound I-63] | ≤ 5.70
COc1cc(N2CC(CC(=O)N3Cc4nc(C#N)nc(OC)c4C3C)C2)ccn1 (single isomer, unassigned) [Compound I-17] | ≤ 5.70
COc1nc(C#N)nc2c1C(C)N(C(=O)CC1CN(c3ccnc(OC(F)F)c3)C1)C2 (single isomer, unassigned) | 6.30 to 7.00
COc1nc(C#N)nc2c1C(C)N(C(=O)CC1CN(c3ccnc(C(F)(F)F)c3)C1C)C2 (single isomer, unassigned) [Compound I-36] | ≥ 7.00
